Biological target: hPIKfyve (Homo sapiens (Human))
Sequence (Q9Y2I7 whole entry, the tested form may be a part): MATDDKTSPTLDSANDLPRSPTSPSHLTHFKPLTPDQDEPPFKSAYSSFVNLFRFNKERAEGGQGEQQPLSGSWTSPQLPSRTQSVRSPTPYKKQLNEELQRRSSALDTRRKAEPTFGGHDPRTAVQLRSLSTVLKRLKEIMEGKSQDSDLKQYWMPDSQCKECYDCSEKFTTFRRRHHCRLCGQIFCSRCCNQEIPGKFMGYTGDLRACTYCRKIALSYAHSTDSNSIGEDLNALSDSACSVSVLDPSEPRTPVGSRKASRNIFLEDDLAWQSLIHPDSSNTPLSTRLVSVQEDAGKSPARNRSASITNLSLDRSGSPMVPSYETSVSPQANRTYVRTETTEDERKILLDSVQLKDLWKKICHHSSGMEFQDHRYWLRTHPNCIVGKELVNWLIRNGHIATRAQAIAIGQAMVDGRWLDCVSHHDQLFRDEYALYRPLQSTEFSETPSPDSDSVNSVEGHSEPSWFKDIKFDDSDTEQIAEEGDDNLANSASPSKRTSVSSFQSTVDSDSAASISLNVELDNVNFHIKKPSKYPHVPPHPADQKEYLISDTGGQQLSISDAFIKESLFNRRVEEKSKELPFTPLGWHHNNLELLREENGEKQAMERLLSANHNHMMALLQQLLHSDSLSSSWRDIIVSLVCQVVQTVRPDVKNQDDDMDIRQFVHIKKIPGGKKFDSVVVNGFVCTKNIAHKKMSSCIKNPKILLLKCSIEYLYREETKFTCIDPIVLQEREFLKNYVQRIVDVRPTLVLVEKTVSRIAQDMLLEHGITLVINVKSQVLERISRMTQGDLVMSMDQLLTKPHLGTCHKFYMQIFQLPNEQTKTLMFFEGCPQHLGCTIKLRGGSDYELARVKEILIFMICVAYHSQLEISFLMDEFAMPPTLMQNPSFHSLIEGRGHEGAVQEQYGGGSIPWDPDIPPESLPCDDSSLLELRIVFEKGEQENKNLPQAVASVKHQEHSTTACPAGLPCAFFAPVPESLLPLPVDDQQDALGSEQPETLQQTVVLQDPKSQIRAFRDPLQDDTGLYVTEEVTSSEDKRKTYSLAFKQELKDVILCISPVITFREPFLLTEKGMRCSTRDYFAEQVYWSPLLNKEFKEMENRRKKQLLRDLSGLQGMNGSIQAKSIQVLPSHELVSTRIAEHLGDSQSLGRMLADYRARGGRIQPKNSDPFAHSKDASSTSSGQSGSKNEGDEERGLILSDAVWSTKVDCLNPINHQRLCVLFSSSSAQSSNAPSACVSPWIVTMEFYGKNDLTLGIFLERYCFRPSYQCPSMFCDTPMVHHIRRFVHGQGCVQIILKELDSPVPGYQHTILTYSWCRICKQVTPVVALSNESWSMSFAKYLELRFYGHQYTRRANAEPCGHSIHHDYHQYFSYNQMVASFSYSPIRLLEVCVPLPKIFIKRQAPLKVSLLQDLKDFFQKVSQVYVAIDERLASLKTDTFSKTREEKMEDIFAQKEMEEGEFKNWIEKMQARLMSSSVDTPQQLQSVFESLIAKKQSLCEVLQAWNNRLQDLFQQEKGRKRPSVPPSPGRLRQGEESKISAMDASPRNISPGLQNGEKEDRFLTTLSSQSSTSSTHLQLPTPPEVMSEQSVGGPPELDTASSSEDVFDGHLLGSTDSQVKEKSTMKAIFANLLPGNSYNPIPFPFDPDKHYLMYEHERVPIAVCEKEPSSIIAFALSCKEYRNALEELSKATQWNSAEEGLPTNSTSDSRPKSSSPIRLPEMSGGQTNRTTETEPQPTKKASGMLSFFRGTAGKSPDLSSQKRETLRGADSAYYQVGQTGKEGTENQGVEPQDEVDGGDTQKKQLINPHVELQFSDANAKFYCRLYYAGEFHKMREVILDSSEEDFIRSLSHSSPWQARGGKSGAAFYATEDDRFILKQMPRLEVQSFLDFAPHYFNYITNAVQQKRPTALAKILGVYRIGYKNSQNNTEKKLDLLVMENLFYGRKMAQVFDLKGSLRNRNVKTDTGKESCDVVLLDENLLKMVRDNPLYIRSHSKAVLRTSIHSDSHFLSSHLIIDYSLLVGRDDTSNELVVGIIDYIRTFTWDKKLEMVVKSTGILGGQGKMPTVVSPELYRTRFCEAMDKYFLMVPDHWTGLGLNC
Assay: NanoBRET TE Intracellular Kinase Assay, K-8, in HEK293 cells transfected with PIKFYVE-NanoLuc Fusion Vector
Conditions: 2 hours, tracer displacement, read-out: hPIKfyve BRET IC50
Protocol: NanoBRET™ TE Intracellular Kinase Assay, K-8 (Promega) Cell-Based Assay. Intracellular inhibition of PIKfyve was assayed using Promega's NanoBRET™ TE Intracellular Kinase Assay, K-8 according to manufacturer's instructions. […] Kinase activity was detected by addition of a NanoBRET™ tracer reagent, which was a proprietary PIKfyve inhibitor appended to a fluorescent probe (BRET, bioluminescence resonance energy transfer). […] IC50 values were then calculated by fitting the data to the normalized BRET ratio.
Hi there, I'd appreciate the recorded IC50 for every entry that follows.

Please look up its IC50: Cc1cccc(/C=N/Nc2nc(N3CCOCC3)c3nc(-c4ccncc4)[nH]c3n2)c1 < 10 nM

Moving on to Cc1cccc(/C=N/Nc2nc(N3CCOCC3)c3nc(-c4ccncc4)n(C)c3n2)c1 [Compound 118] 10 to 100 nM

Moving on to CN1CCC(c2ccn(-c3nc(N4CCOCC4)c4nc(-c5ccncc5)n(C)c4n3)n2)C1 (centres unmarked) 1000 to 10000 nM

Moving on to Cc1cccc(/C=N/Nc2nc(N3CCOCC3)c3nc(-c4ccncc4)n(C)c3n2)c1 [Compound 52] < 10 nM

Moving on to Cn1c(-c2ccncc2)nc2c(N3CCOCC3)nc(-c3ccnc(-c4ccccc4)n3)nc21 10 to 100 nM

These data points were gathered from patent US20240150358A1.
